Target: 5-hydroxytryptamine receptor 1A (Homo sapiens, UniProt P08908); further: assay procedure not described here
Sequence (P08908 whole entry): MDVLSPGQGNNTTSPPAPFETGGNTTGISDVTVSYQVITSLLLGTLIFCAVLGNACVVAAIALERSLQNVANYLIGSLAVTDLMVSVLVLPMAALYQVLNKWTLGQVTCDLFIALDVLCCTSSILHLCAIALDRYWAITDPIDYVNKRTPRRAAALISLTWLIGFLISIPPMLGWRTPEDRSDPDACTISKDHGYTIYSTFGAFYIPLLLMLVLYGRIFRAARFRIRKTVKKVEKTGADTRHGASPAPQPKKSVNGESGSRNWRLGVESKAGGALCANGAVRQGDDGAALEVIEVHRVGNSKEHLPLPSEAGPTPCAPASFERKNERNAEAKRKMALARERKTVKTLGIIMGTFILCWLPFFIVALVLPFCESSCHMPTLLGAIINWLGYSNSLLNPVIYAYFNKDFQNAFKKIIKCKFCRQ
Assay type: functional, cell-based
Kindly supply the reported AC50 values for the records listed here.

Identify AC50 associated with the compound `C[C@H]1CNCCc2ccc(Cl)cc21`
> 30 µM

Identify AC50 associated with the compound `CCOC(=O)[C@H](CCc1ccccc1)N[C@@H](C)C(=O)N1C(=O)N(C)C[C@H]1C(=O)O`
> 30 µM

Identify AC50 associated with the compound CN(C)CCC(c1ccc(Cl)cc1)c1ccccn1 (centres undefined)
> 10 µM

Identify AC50 associated with the compound COc1ccccc1OCCNCC(O)c1ccc(C)c(S(N)(=O)=O)c1 (centres undefined)
> 30 µM

Identify AC50 associated with the compound COCCCN1CCC(NC(=O)c2cc(Cl)c(N)c3c2OCC3)CC1 [PRUCALOPRIDE]
> 30 µM

Identify AC50 associated with the compound `O=C(O)C[C@H](O)C[C@H](O)/C=C/c1c(C2CC2)nc2ccccc2c1-c1ccc(F)cc1`
> 10 µM

Identify AC50 associated with the compound `NCC[C@H](O)C(=O)N[C@@H]1C[C@H](N)[C@@H](O[C@H]2O[C@H](CN)[C@@H](O)[C@H](O)[C@H]2O)[C@H](O)[C@H]1O[C@H]1O[C@H](CO)[C@@H](O)[C@H](N)[C@H]1O`
> 10 µM

Identify AC50 associated with the compound `CN1CCC(=C2c3ccccc3CCc3sccc32)CC1`
3.56 µM

Identify AC50 associated with the compound `O=C1Nc2ccc(Cl)cc2[C@@](C#CC2CC2)(C(F)(F)F)O1`
> 10 µM

----------
Kindly supply the reported AC50 values for the records listed here.

# return AC50 of `O=C1C(O)=C([C@H]2CC[C@H](c3ccc(Cl)cc3)CC2)C(=O)c2ccccc21` (system: Vasopressin V2 receptor (Homo sapiens, UniProt P30518)); further: assay procedure not described here
# Sequence (P30518 whole entry): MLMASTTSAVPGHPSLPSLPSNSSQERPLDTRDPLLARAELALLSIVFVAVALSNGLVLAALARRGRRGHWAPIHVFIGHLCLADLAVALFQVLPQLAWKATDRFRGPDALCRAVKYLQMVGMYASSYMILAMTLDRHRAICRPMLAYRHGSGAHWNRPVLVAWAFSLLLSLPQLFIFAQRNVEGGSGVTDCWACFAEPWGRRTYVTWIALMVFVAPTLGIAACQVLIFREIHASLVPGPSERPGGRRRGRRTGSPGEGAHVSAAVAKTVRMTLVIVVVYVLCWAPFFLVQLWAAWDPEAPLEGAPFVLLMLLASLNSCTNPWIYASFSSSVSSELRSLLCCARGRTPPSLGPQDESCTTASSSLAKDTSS
> 30 µM

# return AC50 of `CC(C)C(=O)c1c(C(C)C)nn2ccccc12` (system: Vasopressin V2 receptor (Homo sapiens, UniProt P30518)); further: assay procedure not described here
> 30 µM

# return AC50 of COc1ccc(CCN(C)CCCC(C#N)(c2cc(OC)c(OC)c(OC)c2)C(C)C)cc1OC (stereo not given) (system: Vasopressin V2 receptor (Homo sapiens, UniProt P30518)); further: assay procedure not described here
> 30 µM

# return AC50 of `COc1ccc(-c2ccc3cc(C(=O)O)ccc3c2)cc1C12CC3CC(CC(C3)C1)C2` (system: Vasopressin V2 receptor (Homo sapiens, UniProt P30518)); further: assay procedure not described here
> 30 µM

# return AC50 of `Cc1cn([C@H]2C[C@H](N=[N+]=[N-])[C@@H](CO)O2)c(=O)[nH]c1=O` (system: Vasopressin V2 receptor (Homo sapiens, UniProt P30518)); further: assay procedure not described here
> 30 µM

# return AC50 of `Brc1c(NC2=NCCN2)ccc2nccnc12` (system: Vasopressin V2 receptor (Homo sapiens, UniProt P30518)); further: assay procedure not described here
> 30 µM

# return AC50 of CN1C(=O)CCS(=O)(=O)C1c1ccc(Cl)cc1 (stereo not given) (system: Vasopressin V2 receptor (Homo sapiens, UniProt P30518)); further: assay procedure not described here
> 10 µM

# return AC50 of `Cn1c(=O)c2c(ncn2CC2OCCO2)n(C)c1=O` (system: Vasopressin V2 receptor (Homo sapiens, UniProt P30518)); further: assay procedure not described here
> 10 µM

# return AC50 of Cn1nnc2c(C(N)=O)ncn2c1=O [TEMOZOLOMIDE] (system: Vasopressin V2 receptor (Homo sapiens, UniProt P30518)); further: assay procedure not described here
> 30 µM

# return AC50 of `O=C(O)C1=C(CSc2nnnn2CS(=O)(=O)O)CS[C@@H]2[C@H](NC(=O)[C@H](O)c3ccccc3)C(=O)N12` (system: Vasopressin V2 receptor (Homo sapiens, UniProt P30518)); further: assay procedure not described here
> 30 µM

# return AC50 of OC(CNCC(O)C1CCc2cc(F)ccc2O1)C1CCc2cc(F)ccc2O1 (stereo not given) (system: Vasopressin V2 receptor (Homo sapiens, UniProt P30518)); further: assay procedure not described here
29 µM

# return AC50 of CCC(C)n1ncn(-c2ccc(N3CCN(c4ccc(OCC5COC(Cn6cncn6)(c6ccc(Cl)cc6Cl)O5)cc4)CC3)cc2)c1=O (stereo not given) (system: Vasopressin V2 receptor (Homo sapiens, UniProt P30518)); further: assay procedure not described here
> 30 µM

# return AC50 of `CC(=O)O[C@H]1C[C@@H]2CC[C@@H]3[C@H](CC[C@@]4(C)[C@H]3C[C@H]([N+]3(C)CCCCC3)[C@@H]4OC(C)=O)[C@@]2(C)C[C@@H]1N1CCCCC1` (system: Vasopressin V2 receptor (Homo sapiens, UniProt P30518)); further: assay procedure not described here
> 30 µM

# return AC50 of CC1=C(C(=O)O)N2C(=O)[C@@H](NC(=O)[C@H](N)c3ccccc3)[C@H]2SC1 [CEPHALEXIN ANHYDROUS] (system: Vasopressin V2 receptor (Homo sapiens, UniProt P30518)); further: assay procedure not described here
> 30 µM

# return AC50 of `O=C1Nc2ccc(Cl)cc2[C@@](C#CC2CC2)(C(F)(F)F)O1` (system: Vasopressin V2 receptor (Homo sapiens, UniProt P30518)); further: assay procedure not described here
> 30 µM

# return AC50 of `C=CCC1(CC(C)C)C(=O)NC(=O)NC1=O` (system: Vasopressin V2 receptor (Homo sapiens, UniProt P30518)); further: assay procedure not described here
> 10 µM

# return AC50 of `CN1CCN(CC/C=C2/c3ccccc3Sc3ccc(S(=O)(=O)N(C)C)cc32)CC1` (system: Vasopressin V2 receptor (Homo sapiens, UniProt P30518)); further: assay procedure not described here
20 µM

# return AC50 of `CC[C@H]1CN2CCc3cc(OC)c(OC)cc3[C@@H]2C[C@@H]1C[C@H]1NCCc2cc(OC)c(OC)cc21` (system: Vasopressin V2 receptor (Homo sapiens, UniProt P30518)); further: assay procedure not described here
> 30 µM

# return AC50 of `O=C(O)C[C@H](O)C[C@H](O)/C=C/c1c(C2CC2)nc2ccccc2c1-c1ccc(F)cc1` (system: Vasopressin V2 receptor (Homo sapiens, UniProt P30518)); further: assay procedure not described here
> 10 µM

# return AC50 of CN1C(=O)C(O)N=C(c2ccccc2Cl)c2cc(Cl)ccc21 (stereo not given) (system: Vasopressin V2 receptor (Homo sapiens, UniProt P30518)); further: assay procedure not described here
> 30 µM

# return AC50 of NC(=O)OCC(COC(N)=O)c1ccccc1 [FELBAMATE] (system: Vasopressin V2 receptor (Homo sapiens, UniProt P30518)); further: assay procedure not described here
> 10 µM

# return AC50 of O=C(O)[C@H](CC(=O)N1C[C@H]2CCCC[C@H]2C1)Cc1ccccc1 [MITIGLINIDE] (system: Vasopressin V2 receptor (Homo sapiens, UniProt P30518)); further: assay procedure not described here
> 10 µM

# return AC50 of COc1ccc(C(=O)Nc2ccccc2CCC2CCCCN2C)cc1 (stereo not given) [ENCAINIDE] (system: Vasopressin V2 receptor (Homo sapiens, UniProt P30518)); further: assay procedure not described here
> 30 µM

# return AC50 of C[N+]1(C)CCC(OC(=O)C(O)(c2ccccc2)C2CCCC2)C1 (stereo not given) [GLYCOPYRRONIUM BROMIDE] (system: Vasopressin V2 receptor (Homo sapiens, UniProt P30518)); further: assay procedure not described here
> 30 µM

# return AC50 of CNC(C)CCC=C(C)C (stereo not given) (system: Vasopressin V2 receptor (Homo sapiens, UniProt P30518)); further: assay procedure not described here
> 30 µM

# return AC50 of `CC(C)OC(=O)CCC/C=C\C[C@@H]1[C@@H](CC[C@@H](O)CCc2ccccc2)[C@H](O)C[C@@H]1O` (system: Vasopressin V2 receptor (Homo sapiens, UniProt P30518)); further: assay procedure not described here
> 30 µM

# return AC50 of `O=C(O)/C=C/c1ccc(Cn2ccnc2)cc1` (system: Vasopressin V2 receptor (Homo sapiens, UniProt P30518)); further: assay procedure not described here
> 30 µM

# return AC50 of `CN(C)/N=N/c1[nH]cnc1C(N)=O` (system: Vasopressin V2 receptor (Homo sapiens, UniProt P30518)); further: assay procedure not described here
> 10 µM

# return AC50 of O=C(NCCNCC(O)COc1ccc(O)cc1)N1CCOCC1 (stereo not given) (system: Vasopressin V2 receptor (Homo sapiens, UniProt P30518)); further: assay procedure not described here
> 30 µM

# return AC50 of `O=[N+]([O-])c1cn2c(n1)OC[C@@H](OCc1ccc(OC(F)(F)F)cc1)C2` (system: Vasopressin V2 receptor (Homo sapiens, UniProt P30518)); further: assay procedure not described here
> 30 µM

# return AC50 of CCOC(=O)OC(C)OC1=C(C(=O)Nc2ccccn2)N(C)S(=O)(=O)c2ccccc21 (stereo not given) (system: Vasopressin V2 receptor (Homo sapiens, UniProt P30518)); further: assay procedure not described here
> 30 µM

# return AC50 of `COc1cc2c(N)nc(N3CCN(C(=O)OCC(C)(C)O)CC3)nc2c(OC)c1OC` (system: Vasopressin V2 receptor (Homo sapiens, UniProt P30518)); further: assay procedure not described here
> 30 µM

# return AC50 of COc1cccc(C2(O)CCCCC2CN(C)C)c1 (stereo not given) (system: Vasopressin V2 receptor (Homo sapiens, UniProt P30518)); further: assay procedure not described here
> 30 µM

# return AC50 of `Clc1ccc(CCCOCCCN2CCCCC2)cc1` (system: Vasopressin V2 receptor (Homo sapiens, UniProt P30518)); further: assay procedure not described here
> 30 µM

# return AC50 of `Cc1c(C(=O)NN2CCCCC2)nn(-c2ccc(Cl)cc2Cl)c1-c1ccc(Cl)cc1` (system: Vasopressin V2 receptor (Homo sapiens, UniProt P30518)); further: assay procedure not described here
> 30 µM

This collection of values is drawn from ChEMBL document CHEMBL5291721.
